# TARGET ENTITY: SUDV GPddmuc (Sudan virus (SUDV), UniProt Q66814 33-650)
# TEST PROTOCOL: ELISA

# BINDER, EC50
rows = [
    ("FVM34 (antibody, V domains shown) VH: EVQLVESGAEVKRPGESLTISCKTSGYSFTDSWVSWVRQMPGKGLEWMGSIYPGDSETKYNPSFQGHVTISADKSVTTTYLKWSSLKASDTATYYCVKGSETWGQGVLVTVSS VL: QPVLTQPASLSASPGASASLTCTFSGGINVAGYYIHWYQQKPGSPPRYLLRYKSDSDKHQGSGVPSRFSGSKDASANTGILRISGLQSEDEADYYCAIGHSSGWVFGGGTRLTVL", "0.027 nM"),
    ("FVM18 (antibody, V domains shown) VH: QVQLVQSGAEVKRPGESLKISCKTSGYSFTNIWISWVRQMPGKGLEWLGSIYPGDSETKYNPSFQGHVTISADKSVTTTYLKWSSLKASDTATYYCVKGSETWGQGVLVTVSS VL: NFMLTQPASLSASPGASASLTCTFSGGINVAGYHILWYQQKPGSPPRYLLRYKSDSEKDQGSGVPSRFSGSKDASANRGILRISGLQSEDEADYYCAIGHSSSGWVFGGGTRLTVL", "0.108 nM"),
    ("FVM21 (antibody, V domains shown) VH: EVQLVESGAEVKRPGESLTISCKTSGYSFTDSWVAWVRQMPGKGLEWLGSIYPGDSETKYNPSFQGHVTISADKSISTTYLQWSSLRASDTATYYCVKGADDWGPGLLVTVSS VL: SSELTQPASLSASPGASASLTCTFSGGINVAGYNILWYQQKAGSPPRYLLRYKSDSDKGQGSGVPSRFSGSKDASANTGILRISGLQSEDEADYYCAIGHSSGWIFGGGTRLTVL", "0.067 nM"),
    ("FVM35 (antibody, V domains shown) VH: EVQLVQSGAEVKRPGESLTISCKTSGYSFTSYWITWVRQMPGKGLEWLGSIYPGDSETKYNPSFQGHVTISADKSVTTTYLKWSSLKASDTATYYCVKGSETWGQGVLVTVSS VL: QPVLTQPASLSASPGASASLTCTFSGGINVAGYNILWYQQKAGSPPRYLLRYKSDSTKDQGSGVPSRFSGSKDASANTGILRISGLQSEDEADYYCAIGHSSGWIFGGGTRLTVL", "0.033 nM"),
    ("FVM31 (antibody, V domains shown) VH: QVQLVQSGAEVKRPGESLTISCKTSGYSFTDSWVAWVRQMPGKGLEWLGSIYPGDSDARYNPSFQGHVTISADTSVTTTYLKWSSLKASDTATYYCVKGSETWGQGVLVTVSS VL: KPMLTQPASLSASPGASASLTCTFSGGINVAGYNILWYQQKAGSPPRYLLRYKSDSTKDQGSGVPSRFSGSKDASANTGILRISGLQSEDEADYYCAIGHSSGWIFGGGTRLTVL", "0.093 nM"),
]
